The entries below come with measured mean fluorescence relative to chimera values attached.
# MEASUREMENT TARGET: T1, human CD47 (human, UniProt Q08722 19-323)
# T1 construct: whole, on cells; also called CD47 on human RBCs; CD47 on OV10 cells
# T1 sequence (Q08722 19-323): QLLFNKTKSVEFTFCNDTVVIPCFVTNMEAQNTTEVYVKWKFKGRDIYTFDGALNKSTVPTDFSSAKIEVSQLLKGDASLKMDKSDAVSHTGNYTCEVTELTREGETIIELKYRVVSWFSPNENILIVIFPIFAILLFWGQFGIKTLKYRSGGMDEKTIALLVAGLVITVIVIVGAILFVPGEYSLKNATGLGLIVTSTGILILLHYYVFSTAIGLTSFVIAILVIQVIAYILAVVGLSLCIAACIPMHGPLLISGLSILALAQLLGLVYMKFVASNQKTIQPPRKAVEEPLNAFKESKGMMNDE
# MEASUREMENT NOTES: FACS, human RBCs, supernatant 10 ng/ml
# print the numeric value only

[
  {
    "BINDER": "Clone 6 (pVxK7b-037-hum06-LC / pVxK7b-037-hum06-HC) (antibody, human IgG1, kappa, V domains shown) VH: QVQLQESGPGLVKPSQTLSLTCTVSGYTFTNYYVFWVRQARGQRLEWIGDINPVNGDTNFNEKFKNRLTISKDTSKNQVVLTMTNMDPVDTATYYCARGGYTMDYWGQGTLVTVSS VL: DIQMTQSPSSLSASVGDRVTITCRSSQSLVHSNGNTYLHWYLQKPGQSPQLLIYKVSYRFSGIPARFSGSGSGTEFTLTISSLQSEDFAVYYCSQNTHVPRTFGQGTKVEIKR",
    "mean fluorescence relative to chimera": 0.9
  }
]

// switching to the query binder
Which value of mean fluorescence relative to chimera has been reported for Clone 11 (pVxK7b-037-hum11-LC / pVxK7b-037-hum11-HC) (antibody, human IgG1, kappa, V domains shown, also called Cl 11) VH: QVQLQESGPGLVKPGATVKISCKVSGYTFTNYYVFWVRQARGQRLEWIGDINPVNGDTNFNEKFKNRVTITADKSTSTAYMELSSLRSEDTAVYYCARGGYTMDYWGQGTLVTVSS VL: EIVLTQSPATLSVSPGERATLSCRSSQSLVHSNGNTYLHWYQQKPGQAPRLLIYKVSYRFSGVPSRFSGSGSGTDFTFTISSLEAEDAATYYCSQNTHVPRTFGQGTKVEIKR in the records?
0.8
